# TGT: human JAK3 kinase domain (JH1) (Homo sapiens, UniProt P52333)
# Construct: recombinantly generated catalytic kinase (also known as JH1) domain of human JAK1, JAK2, JAK3 and TYK2
# Sequence (P52333 822-1111 limits assumed): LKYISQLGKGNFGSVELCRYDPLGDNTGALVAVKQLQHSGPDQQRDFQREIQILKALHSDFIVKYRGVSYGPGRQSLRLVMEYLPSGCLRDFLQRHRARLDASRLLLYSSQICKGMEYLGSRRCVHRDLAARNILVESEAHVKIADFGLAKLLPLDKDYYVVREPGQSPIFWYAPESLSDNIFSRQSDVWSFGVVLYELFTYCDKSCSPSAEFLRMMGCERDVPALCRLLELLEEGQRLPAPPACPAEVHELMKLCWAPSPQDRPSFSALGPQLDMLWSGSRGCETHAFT
# ASSAY SUMMARY: JH1 biochemical assay for JAK3 (ADP-Glo kinase assay, recombinant JH1 catalytic domain, JAK3-974 peptide, 4 μM ATP)
# CONDITION PARAMETERS: JH1 kinase domain, ADP-Glo
pIC50: −log10 of the molar value. Counter-ions that a name gives are not always drawn.
PARAMETER MEASURED: pIC50

Consider the following illustrative entries.
{"columns": ["MOLECULE", "TGT", "pIC50"],
 "data": [
  ["COc1cncc(-c2cc3c(N4C[C@@H](C)[C@@](C#N)(C5CC5)C4=O)ccnn3c2)c1", "human JAK3 kinase domain (JH1) (Homo sapiens, UniProt P52333)", "< 5.00"],
  ["C[C@@H]1CN(c2ccnn3cc(-c4ccnn4C)cc23)C(=O)[C@]1(C#N)C1CC1", "human JAK3 kinase domain (JH1) (Homo sapiens, UniProt P52333)", "5.30 to 6.00"],
  ["C[C@@H]1CN(c2ccnn3cc(-c4ccc(C(F)(F)F)nc4)cc23)C(=O)[C@]1(C#N)C1CC1", "human JAK3 kinase domain (JH1) (Homo sapiens, UniProt P52333)", "6.00 to 7.00"],
  ["C[C@@H]1CN(c2ccnn3cc(-c4cc(C(F)(F)F)nn4C)cc23)C(=O)[C@]1(C#N)C1CC1 [Example 107, trifluoroacetate]", "human JAK3 kinase domain (JH1) (Homo sapiens, UniProt P52333)", "5.30 to 6.00"],
  ["Cc1ccc2nc(-c3cc4c(N5C[C@@H](C)[C@@](C#N)(C6CC6)C5=O)ccnn4c3)nn2c1 [Example 109, trifluoroacetate]", "human JAK3 kinase domain (JH1) (Homo sapiens, UniProt P52333)", "5.30 to 6.00"]
]}

Return pIC50 for the following molecule: `COc1ncc(-c2cc3c(N4C[C@@H](C)[C@@](C#N)(C5CC5)C4=O)ccnn3c2)cc1C#N`
5.30 to 6.00

Return pIC50 for the following molecule: Cn1cc(-c2cc3c(N4CC[C@](C)(C#N)C4=O)ccnn3c2)cn1 (single isomer, unassigned)
< 5.00

Return pIC50 for the following molecule: `CCOCCn1cc(-c2cc3c(N4C[C@@H](C)[C@@](C#N)(C5CC5)C4=O)ccnn3c2)cn1`
6.00 to 7.00

Return pIC50 for the following molecule: C[C@@H]1CN(c2ccnn3cc(-c4cc(C(F)(F)F)ncn4)cc23)C(=O)[C@]1(C#N)C1CC1 [Example 121, trifluoroacetate]
5.30 to 6.00

Return pIC50 for the following molecule: `C[C@@H]1CN(c2ccnn3cc(-c4cccnc4F)cc23)C(=O)[C@]1(C#N)C1CC1`
6.00 to 7.00

Return pIC50 for the following molecule: COc1cnc(-c2cc3c(N4C[C@@H](C)[C@@](C#N)(C5CC5)C4=O)ccnn3c2)cn1 [Example 132, trifluoroacetate]
5.30 to 6.00

Return pIC50 for the following molecule: CCc1ccncc1-c1cc2c(N3C[C@@H](C)[C@@](C#N)(C4CC4)C3=O)ccnn2c1 [Example 175, trifluoroacetate]
< 5.00

Return pIC50 for the following molecule: `C[C@@H]1CN(c2ccnn3cc(-c4cnn(-c5ccncc5)c4)cc23)C(=O)[C@]1(C#N)C1CC1`
6.00 to 7.00

Return pIC50 for the following molecule: `C[C@@H]1CN(c2ccnn3cc(-c4cncnc4)cc23)C(=O)[C@]1(C#N)C1CC1`
5.30 to 6.00

* * *

Some compounds, each annotated with its measured pIC50.
# TGT: Tyk2 kinase activity on STAT4 in NK92 cells (Homo sapiens, UniProt P29597)
# ASSAY SUMMARY: pSTAT4 cell assay (MSD; NK92 cells, 30 ng/mL IL2 stimulation)
# CONDITION PARAMETERS: 30 ng/mL IL2, 15 minutes
# Method: The inhibitory potency of compounds of the disclosure against the Tyk2 kinase activity on STAT4 was evaluated using an MSD-platform plate-based assay format. NK92 cells natively expressing STAT4 and Tyk2 were serum-starved to reduce background phosphorylation levels, then cells were treated compounds for 1 hr with a 10-point four-fold dilution series starting at 10 μM. […] Cells were lysed and pSTAT5 levels were quantitated using an MSD plate-based assay with anti-STAT4 antibodies. […]
pIC50: −log10 of the molar value. Structures can show the parent of a compound that is named as a salt.

Consider the following illustrative entries.
{"columns": ["COMPOUND", "PARAMETER MEASURED", "ENDPOINT VALUE"],
 "data": [
  ["CC[C@@H]1CN(c2ccnn3cc(-c4cnn(C)c4)cc23)C(=O)[C@]1(C#N)C1CC1", "pIC50", "7.00 to 7.30"],
  ["C[C@@H]1CN(c2nc(-c3cnn(C4CCCCC4)c3)cn3ncc(F)c23)C(=O)[C@]1(C#N)C1CC1", "pIC50", "7.00 to 7.30"]
]}

Tell me pIC50 of `C[C@@H]1CN(c2ccnn3cc(-c4cnn([C@H]5C[C@@](F)(C#N)C5)c4)cc23)C(=O)[C@]1(C#N)C1CC1` when tested on Tyk2 kinase activity on STAT4 in NK92 cells (Homo sapiens, UniProt P29597).
< 7.00

Tell me pIC50 of C[C@@H]1CN(c2nc(-c3ccn(C)c(=O)c3)cn3nccc23)C(=O)[C@]1(C#N)C1CC1 [Example 261, trifluoroacetate] when tested on Tyk2 kinase activity on STAT4 in NK92 cells (Homo sapiens, UniProt P29597).
< 7.00

* * *

# TGT: human TYK2 kinase domain (JH1) (Homo sapiens, UniProt P29597)
# Construct: recombinantly generated catalytic kinase (also known as JH1) domain of human JAK1, JAK2, JAK3 and TYK2
# Sequence (P29597 897-1176 limits assumed): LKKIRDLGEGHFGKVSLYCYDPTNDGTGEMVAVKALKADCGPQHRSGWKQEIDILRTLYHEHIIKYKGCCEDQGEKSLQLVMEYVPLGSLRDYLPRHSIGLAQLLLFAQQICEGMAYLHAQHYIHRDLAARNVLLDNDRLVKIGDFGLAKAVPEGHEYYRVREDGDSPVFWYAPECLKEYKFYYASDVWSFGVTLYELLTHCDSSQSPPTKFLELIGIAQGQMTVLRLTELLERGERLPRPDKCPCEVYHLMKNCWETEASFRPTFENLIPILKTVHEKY
# ASSAY SUMMARY: JH1 biochemical assay for TYK2 (ADP-Glo kinase assay, recombinant JH1 catalytic domain, JAK3-974 peptide, 10 μM ATP)
# CONDITION PARAMETERS: JH1 kinase domain, ADP-Glo
pIC50: −log10 of the molar value. Structures can show the parent of a compound that is named as a salt.
Some compounds, each annotated with its measured pIC50.

Consider the following illustrative entries.
{"columns": ["COMPOUND", "pIC50"],
 "data": [
  ["Cn1cc(-c2cc3c(N4CC[C@](C#N)(C5CC5)C4=O)ccnn3c2)cn1", "< 7.00"],
  ["C[C@@H]1CN(c2ccnn3cc(-c4ccnc(F)c4)cc23)C(=O)[C@]1(C#N)C1CC1", "7.70 to 8.30"]
]}

Return pIC50 for the following compound: Cc1nc(-c2cc3c(N4C[C@@H](C)[C@@](C#N)(C5CC5)C4=O)ccnn3c2)ccc1F [Example 147, trifluoroacetate]
7.70 to 8.30

Return pIC50 for the following compound: `C[C@@H]1C[C@](C#N)(C2CC2)C(=O)N1c1ccnn2cc(-c3cnn(C)c3)cc12`
< 7.00

Return pIC50 for the following compound: `C[C@@H]1CN(c2ccnn3cc(-c4ccc5cnn(C)c5c4)cc23)C(=O)[C@]1(C#N)C1CC1`
7.70 to 8.30

Return pIC50 for the following compound: C[C@@H]1CN(c2ccnn3cc(-c4cncc(C#N)n4)cc23)C(=O)[C@]1(C#N)C1CC1 [Example 133, trifluoroacetate]
7.30 to 7.70

Return pIC50 for the following compound: CC[C@@]1(C#N)CCN(c2ccnn3cc(-c4cnn(C)c4)cc23)C1=O (single isomer, unassigned)
< 7.00

* * *

Some compounds, each annotated with its measured pIC50.
# TGT: human JAK3 kinase domain (JH1) (Homo sapiens)
# Construct: recombinantly generated catalytic kinase (also known as JH1) domain of human JAK1, JAK2, JAK3 and TYK2
# ASSAY SUMMARY: JH1 biochemical assay for JAK3 (ADP-Glo kinase assay, recombinant JH1 catalytic domain, JAK3-974 peptide, 4 μM ATP)
# CONDITION PARAMETERS: JH1 kinase domain, ADP-Glo
pIC50: −log10 of the molar value. Structures can show the parent of a compound that is named as a salt.

{"columns": ["COMPOUND", "pIC50"],
 "data": [
  ["C[C@@H]1CN(c2ccnn3cc(-c4ncccc4F)cc23)C(=O)[C@]1(C#N)C1CC1 [Example 138, trifluoroacetate]", "5.30 to 6.00"],
  ["COc1cccc(-c2cn3nccc3c(N3C[C@@H](C)[C@@](C#N)(C4CC4)C3=O)n2)n1", "< 5.00"],
  ["COc1ncc(-c2cc3c(N4C[C@@H](C)[C@@](C#N)(C5CC5)C4=O)ccnn3c2)cn1", "5.30 to 6.00"],
  ["CCc1ccc(-c2cc3c(N4C[C@@H](C)[C@@](C#N)(C5CC5)C4=O)ccnn3c2)cn1 [Example 174, trifluoroacetate]", "6.00 to 7.00"],
  ["CC(C)n1cc(-c2cc3c(N4C[C@@H](C)[C@@](C#N)(C5CC5)C4=O)ccnn3c2)cn1", "> 7.00"],
  ["C[C@@H]1CN(c2ccnn3cc(-c4ccc(N(C)C)cn4)cc23)C(=O)[C@]1(C#N)C1CC1 [Example 134, trifluoroacetate]", "6.00 to 7.00"]
]}

Query compound follows.
Return pIC50 for the following compound: C[C@@H]1CN(c2ccnn3cc(-c4cc5n(n4)CCO5)cc23)C(=O)[C@]1(C#N)C1CC1 [Example 110, trifluoroacetate]
6.00 to 7.00
